These measurements were taken from ChEMBL document CHEMBL4888484.

Test system: Plasmodium falciparum
Assay: Primary screen in NF54 nanoGlo assay, in single point, at 2uM, 72h
Assay type: functional, Erythrocyte
Conditions: timepoint 72 hour
Screen size: about 150,000 compounds; about 540 (0.36%) showed an effect of 50% or more. The sample as a whole holds a higher share of strong results than the screen did.

[
  {
    "Molecule": "Cc1cccc(NCc2ccc(N3N=C(c4ccccc4)C[C@H]3c3ccccc3)cc2)c1",
    "Study Target": "Plasmodium falciparum",
    "Z score": 0.11
  },
  {
    "Molecule": "COc1cc(NC(=O)N2Cc3cn[nH]c3CC(C)(C)C2)c(C)c(OC)c1",
    "Study Target": "Plasmodium falciparum",
    "Z score": -1.52
  },
  {
    "Molecule": "Cc1ccsc1-c1noc([C@@H]2COCCN2C)n1",
    "Study Target": "Plasmodium falciparum",
    "Z score": -14.98
  },
  {
    "Molecule": "C[C@@H](CNc1nc(-c2ccccc2)nc2nc(-c3ccc(Cl)cc3)oc12)N1CCOCC1",
    "Study Target": "Plasmodium falciparum",
    "Z score": 2.25
  },
  {
    "Molecule": "CCc1nccc(CN2CCC[C@H](CS(C)(=O)=O)C2)n1",
    "Study Target": "Plasmodium falciparum",
    "Z score": 2.11
  },
  {
    "Molecule": "C[C@@H](CNc1nc(-c2ccccc2)nc2nc(-c3ccc(Cl)cc3)oc12)N1CCCCC1",
    "Study Target": "Plasmodium falciparum",
    "Z score": -10.9
  },
  {
    "Molecule": "COc1cccc(CNS(=O)(=O)c2cc(-c3c(C)nn4c3NC(=O)CCC4=O)ccc2OC)c1",
    "Study Target": "Plasmodium falciparum",
    "Z score": -0.21
  },
  {
    "Molecule": "CC1(C)C2CCC(C2)C1CC1OCC(C[N+]2(Cc3ccccc3)CCCCC2)O1 (stereo not given)",
    "Study Target": "Plasmodium falciparum",
    "Z score": 1.37
  },
  {
    "Molecule": "Cc1cnn(C)c1CN1CCOC[C@H]1c1nc(-c2ccccc2)no1",
    "Study Target": "Plasmodium falciparum",
    "Z score": -2.06
  },
  {
    "Molecule": "Cc1cc(NC(=O)c2ccccc2C(=O)c2ccc(Cl)cc2)ccc1N1CCCC1=O",
    "Study Target": "Plasmodium falciparum",
    "Z score": 1.56
  }
]

----------
Test system: Plasmodium falciparum
Assay: Primary screen in NF54 nanoGlo assay, in single point, at 2uM, 72h
Format: functional, Erythrocyte
Conditions: timepoint 72 hour
Among all 150,000 compounds or so, about 540 (0.36%) showed an effect of 50% or more. Only a selection was taken, and strong results are over-represented in it overall.
Decide by Z score: equal to or exceeding -0.5 means 1.0, less means 0.0.

[
  {
    "Compound": "CCC(C)(C)NC(=O)Cn1c(C)ccc(NS(=O)(=O)c2ccc(C)cc2)c1=O",
    "Classification": 1.0
  },
  {
    "Compound": "COc1cccc2c(Nc3ccc(C(=O)O)cc3)cc(C)nc12",
    "Classification": 1.0
  },
  {
    "Compound": "NC(=O)Cc1ccc(Cl)cc1Cl",
    "Classification": 1.0
  },
  {
    "Compound": "CC(=O)Nc1ccc(-c2nc(-c3cccnn3)no2)c(C)c1",
    "Classification": 1.0
  },
  {
    "Compound": "CC(=O)c1ccccc1C(=O)NCCCc1ncc[nH]1",
    "Classification": 1.0
  },
  {
    "Compound": "Cc1ccsc1CNc1ccccc1C(=O)NCc1ncc[nH]1",
    "Classification": 1.0
  },
  {
    "Compound": "Cc1cc(C)c2nc(C)cc(Nc3ccc(O)cc3)c2c1",
    "Classification": 0.0
  },
  {
    "Compound": "Fc1ccc(Cc2nnc3n2CCCC3)cc1",
    "Classification": 0.0
  },
  {
    "Compound": "Cc1cc(Nc2ccc(C)c(Cl)c2)c2cccc(C)c2n1",
    "Classification": 0.0
  },
  {
    "Compound": "Cc1ccc(S(=O)(=O)Nc2ccc(C)n(CC(=O)NCC(C)C)c2=O)cc1",
    "Classification": 1.0
  },
  {
    "Compound": "Cc1ccccc1C(=O)Cc1ncc[nH]1",
    "Classification": 0.0
  },
  {
    "Compound": "CC(C(=O)Nc1ccc(Cl)cn1)N1CCCC(c2ccn[nH]2)C1 (configuration not stated)",
    "Classification": 0.0
  }
]

----------
Test system: Plasmodium falciparum
Assay: Primary screen in NF54 nanoGlo assay, in single point, at 2uM, 72h
Format: functional, Erythrocyte
Details: timepoint 72 hour
In all, about 150,000 compounds went through this assay and about 540 (0.36%) showed an effect of 50% or more. The sample as a whole holds a higher share of strong results than the screen did.
Collected Z score values appear next to each entry.

[
  {
    "Compound": "COc1ccc2[nH]c3c(c2c1)CCN(C(=O)c1ccc(C)c(C)c1)[C@H]3COCc1ccccc1",
    "Z score": 0.02
  },
  {
    "Compound": "CCNC(=O)N[C@H]1CCN(C2CCCCCC2)C1",
    "Z score": -0.09
  },
  {
    "Compound": "COc1ccc2[nH]c3c(c2c1)CCN(C(=O)c1ccc(C)c(C)c1)[C@@H]3c1ccccc1OC",
    "Z score": -11.27
  },
  {
    "Compound": "Cc1ccccc1N1C(=O)CN(C(=O)C2COc3ccccc3O2)CC1C (stereo unspecified)",
    "Z score": 0.18
  },
  {
    "Compound": "Cc1nc(O)nc(O)c1CN1CCOCC1",
    "Z score": 1.65
  },
  {
    "Compound": "Cc1cc(C)cc(N(CCC#N)C(=O)CN2CCC[C@H]2c2ccc3c(c2)OCCCO3)c1",
    "Z score": 0.18
  }
]

----------
Item-by-item account of Z score
Tested on: Plasmodium falciparum
Test: Primary screen in NF54 nanoGlo assay, in single point, at 2uM, 72h; a lower Z score goes with more inhibition
Format: functional, Erythrocyte
Details: timepoint 72 hour
Hit rate of the full screen: of about 150,000 compounds, about 540 (0.36%) showed an effect of 50% or more. The entries come from a sample that favours strong results as a whole.

[
  {
    "Compound": "CC1(C(=O)Nc2n[nH]c3cc(F)ccc23)CC2CCC1O2 (stereo not drawn)",
    "Z score": 1.08
  },
  {
    "Compound": "Cc1cc(-c2cncc(CN3CCC(C(N)=O)CC3)c2)ccc1F",
    "Z score": 0.18
  },
  {
    "Compound": "Cc1nnc(-c2ccc3ccn(CC(=O)Nc4ccc(F)c(Cl)c4)c3c2)o1",
    "Z score": -10.55
  },
  {
    "Compound": "COc1cc2ncc3c(-c4ccccc4)n[nH]c3c2cc1OC",
    "Z score": -0.99
  },
  {
    "Compound": "COc1cccc(NC(=O)Cn2ccc3ccc(-c4nnc(C)o4)cc32)c1",
    "Z score": -0.81
  },
  {
    "Compound": "Cc1cc(C)cc(NC(=O)Cn2ccc3ccc(-c4nnc(C)o4)cc32)c1",
    "Z score": -0.2
  },
  {
    "Compound": "COc1ccc(-c2cnc3n2CCCC3)cc1",
    "Z score": 2.75
  },
  {
    "Compound": "Cc1nn(C)c(Cl)c1C(=O)Nc1ccc2ccccc2c1",
    "Z score": -1.64
  },
  {
    "Compound": "Cc1ccc(-c2n[nH]c3c2cnc2ccc(C)cc23)cc1",
    "Z score": 0.82
  },
  {
    "Compound": "O=C1NC(=O)c2ccc3c4c(ccc1c24)C(=O)N(c1ccccc1)C3=O",
    "Z score": -8.98
  },
  {
    "Compound": "COc1ccc(-c2cncc(CN3CCCC3)c2)cc1OC",
    "Z score": 1.71
  },
  {
    "Compound": "Cc1ccc(NC(=O)Cc2nnc(-c3cnccn3)o2)c(Cl)c1",
    "Z score": 1.25
  },
  {
    "Compound": "N[C@H](C(=O)Nc1cncc(Br)c1O)C1CCOCC1",
    "Z score": -1.45
  },
  {
    "Compound": "Cc1cccc(NC(=O)Cn2ccc3ccc(-c4nnc(C)o4)cc32)c1",
    "Z score": -0.76
  },
  {
    "Compound": "O=C(c1ccccc1F)N1CCN(C(=O)c2nnn3c2CO[C@H](c2ccc(Cl)cc2)C3)CC1",
    "Z score": 2.19
  },
  {
    "Compound": "O=C1c2ccc(O)cc2C(=O)N1c1ccc(N(c2ccccc2)c2ccc(N3C(=O)c4ccc(O)cc4C3=O)cc2)cc1",
    "Z score": -1.03
  },
  {
    "Compound": "Cc1ccc(NC(=O)Cn2ccc3ccc(-c4nnc(C)o4)cc32)cc1",
    "Z score": 0.31
  },
  {
    "Compound": "COc1ccc(C(=O)c2cnc3cc(Cl)ccc3c2-c2ccccc2)cc1",
    "Z score": 1.39
  },
  {
    "Compound": "Cc1cc(C)cc(CCNC(=O)CN(C)S(C)(=O)=O)c1",
    "Z score": 0.7
  },
  {
    "Compound": "CN(CC(F)(F)F)C(=O)CN1C(=O)c2ccccc2C(C)(C)C1=O",
    "Z score": -0.16
  },
  {
    "Compound": "Cc1cc(-c2cncc(CN3CCCCC3)c2)ccc1F",
    "Z score": -1.27
  },
  {
    "Compound": "CCc1cccc(NC(=O)Cn2ccc3ccc(-c4nnc(C)o4)cc32)c1",
    "Z score": -9.29
  },
  {
    "Compound": "NC(=O)CO[C@H]1CCOC[C@H]1NC(=O)c1ccc(Oc2ccccc2)o1",
    "Z score": -0.64
  }
]
